molecular target: elastase from porcine pancreas (EC 3.4.21.36) (Sus scrofa, UniProt P00772)
Sequence (P00772 27-266): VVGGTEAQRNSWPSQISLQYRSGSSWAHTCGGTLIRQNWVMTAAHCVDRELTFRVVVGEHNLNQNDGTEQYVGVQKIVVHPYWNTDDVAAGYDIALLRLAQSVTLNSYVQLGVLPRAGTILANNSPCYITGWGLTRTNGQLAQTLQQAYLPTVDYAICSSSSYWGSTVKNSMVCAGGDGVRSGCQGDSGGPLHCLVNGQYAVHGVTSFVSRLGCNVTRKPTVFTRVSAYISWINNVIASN
measurement.label: pIC50
Please note pIC50 is a logarithmic value: minus log10 of concentration in mol/L. Answer with that number alone.

Request - read-out pIC50 | tested on elastase from porcine pancreas (EC 3.4.21.36) (Sus scrofa, UniProt P00772) | compound Oc1cc(O)c2c(c1)OC(c1ccc(O)c(O)c1)C(O)C2 (racemic) [catechin]
4.74
